Entry source: patent US20220033501A1

- system-under-test: T1, human TIM-3, full length, on cells (human, UniProt Q8TDQ0 22-301)
- T1 construct: Also used here for native TIM-3 on PBMC in the functional rows; also called CHOK1-hTIM-3; HEK293-h TIM-3
- T1 sequence: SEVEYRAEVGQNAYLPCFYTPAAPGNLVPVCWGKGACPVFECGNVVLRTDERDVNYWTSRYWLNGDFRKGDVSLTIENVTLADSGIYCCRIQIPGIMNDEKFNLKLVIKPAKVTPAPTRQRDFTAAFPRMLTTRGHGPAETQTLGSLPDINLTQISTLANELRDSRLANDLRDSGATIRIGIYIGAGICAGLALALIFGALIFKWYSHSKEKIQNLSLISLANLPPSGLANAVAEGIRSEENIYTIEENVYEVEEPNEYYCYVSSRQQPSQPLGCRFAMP
- assay-procedure: FACS, CHOK1-hTIM-3 cells; antibody 0.013 nM
# Mean fluorescence intensity per entry
observed-property: Mean fluorescence intensity

>>> reported_result("18D2H2 (TIM-3 antibody purified from hybridoma, chimeric antibody of Example 2) (antibody, V domains shown, From hybridoma of Harbour H2L2 transgenic mice: human variable regions, rat constant regions) VH: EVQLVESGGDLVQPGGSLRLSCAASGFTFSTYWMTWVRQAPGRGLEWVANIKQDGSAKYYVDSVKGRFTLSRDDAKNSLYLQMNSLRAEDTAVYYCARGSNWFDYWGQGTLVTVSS VL: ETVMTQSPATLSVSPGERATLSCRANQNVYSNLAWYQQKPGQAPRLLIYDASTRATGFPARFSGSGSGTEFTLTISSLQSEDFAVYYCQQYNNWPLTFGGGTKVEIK")
4.2
>>> reported_result("57F4E5 (TIM-3 antibody purified from hybridoma, chimeric antibody of Example 2) (antibody, V domains shown, From hybridoma of Harbour H2L2 transgenic mice: human variable regions, rat constant regions) VH: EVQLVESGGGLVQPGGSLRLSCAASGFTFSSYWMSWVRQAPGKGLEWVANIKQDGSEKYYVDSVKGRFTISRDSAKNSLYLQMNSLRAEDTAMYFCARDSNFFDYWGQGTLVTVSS VL: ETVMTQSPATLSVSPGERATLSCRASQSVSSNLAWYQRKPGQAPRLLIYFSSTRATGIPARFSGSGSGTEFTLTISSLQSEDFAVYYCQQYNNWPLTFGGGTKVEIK")
21.2
>>> reported_result("134H3G6 (TIM-3 antibody purified from hybridoma, chimeric antibody of Example 2) (antibody, V domains shown, From hybridoma of Harbour H2L2 transgenic mice: human variable regions, rat constant regions) VH: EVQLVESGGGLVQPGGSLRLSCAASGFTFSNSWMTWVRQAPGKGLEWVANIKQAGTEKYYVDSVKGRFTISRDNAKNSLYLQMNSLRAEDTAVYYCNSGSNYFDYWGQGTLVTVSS VL: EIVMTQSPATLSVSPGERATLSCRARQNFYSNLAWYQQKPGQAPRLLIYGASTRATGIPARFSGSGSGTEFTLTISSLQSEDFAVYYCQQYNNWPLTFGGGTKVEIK")
4.7
>>> reported_result("7A4F10 (TIM-3 antibody purified from hybridoma, chimeric antibody of Example 2) (antibody, V domains shown, From hybridoma of Harbour H2L2 transgenic mice: human variable regions, rat constant regions) VH: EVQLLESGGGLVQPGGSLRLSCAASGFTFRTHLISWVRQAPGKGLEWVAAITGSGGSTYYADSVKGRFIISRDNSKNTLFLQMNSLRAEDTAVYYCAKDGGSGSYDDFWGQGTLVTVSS VL: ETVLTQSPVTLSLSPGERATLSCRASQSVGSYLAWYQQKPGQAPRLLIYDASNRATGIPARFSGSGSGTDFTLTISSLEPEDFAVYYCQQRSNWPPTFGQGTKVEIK")
3.3
